Reference source for all entries: PubChem BioAssay AID1159580

Exercise: state measured normalized growth for each of the compounds provided.
assay: chemical genetic growth profiling, strain panel (AID 1159580);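 note: tested at 20 µM; growth read once vehicle control cultures reached saturation at 30 °C; 1 = growth at the plate median or of vehicle wells; lower values mean less growth of the strain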; settings: S. cerevisiae deletion strains, growth OD, locus YMR058W, strain fet3, stronger effect = lower value
About 2,000 (36%) of roughly 5,500 compounds were called active. About 18% were inconclusive and are not listed. Some of the results follow.
// no unit, no text: just the number

IN: For the compound shown here, Nc1ccc(S(=O)(=O)Nc2ccccn2)cc1 , give the reported normalized growth.
OUT: 1.03

IN: For the compound shown here, C=CCC1(C(C)CCC)C(=O)N=C(S)NC1=O (stereo not drawn) , give the reported normalized growth.
OUT: 0.977

IN: For the compound shown here, CN[C@H](CC(=O)O)C(=O)O , give the reported normalized growth.
OUT: 1.01

IN: For the compound shown here, CC(C)(C)NC[C@@H](O)COc1nsnc1N1CCOCC1 , give the reported normalized growth.
OUT: 1

IN: For the compound shown here, CC(C)NCC(O)c1ccc(O)c(O)c1 (stereo not drawn) , give the reported normalized growth.
OUT: 0.991

IN: For the compound shown here, C=CC(C1=CC(=O)C(OC)=CC1=O)c1ccc(O)cc1 (stereo not drawn) , give the reported normalized growth.
OUT: 1.01

IN: For the compound shown here, NC[C@H](O)c1ccc(O)c(O)c1 , give the reported normalized growth.
OUT: 0.841

IN: For the compound shown here, NCC(O)c1ccc(O)cc1 (stereo not drawn) , give the reported normalized growth.
OUT: 1.02

IN: For the compound shown here, CC1(C)C(=O)C=C[C@@]2(C)C1=C(O)C(=O)[C@]1(C)C2CC[C@@]2(C)[C@H](c3ccoc3)C[C@H]3O[C@]321 (stereo partly drawn) , give the reported normalized growth.
OUT: 0.875

IN: For the compound shown here, CC(=O)NCCCCCC(=O)O , give the reported normalized growth.
OUT: 0.981

IN: For the compound shown here, CNC[C@@H](O)c1ccc(O)c(O)c1 , give the reported normalized growth.
OUT: 1

IN: For the compound shown here, O=C(O)CF , give the reported normalized growth.
OUT: 1.02

IN: For the compound shown here, CC(=O)O[C@@H]1CC2C(C)(C)C=CC(=O)[C@]2(C)C2CC[C@@]3(C)[C@H](c4ccoc4)OC(=O)C4OC43[C@@]21C (stereo partly drawn) , give the reported normalized growth.
OUT: 1

IN: For the compound shown here, Nc1ncn([C@@H]2O[C@H](CO)[C@@H](O)[C@H]2O)c(=O)n1 , give the reported normalized growth.
OUT: 0.989

IN: For the compound shown here, COc1ccccc1OCCNCC(O)COc1cccc2[nH]c3ccccc3c12 (stereo not drawn) , give the reported normalized growth.
OUT: 1.03

IN: For the compound shown here, COc1cccc(/C=C/C(=O)O)c1C(C)C , give the reported normalized growth.
OUT: 0.976

IN: For the compound shown here, CCOP(=S)(OCC)SCn1c(=O)oc2cc(Cl)ccc21 , give the reported normalized growth.
OUT: 0.966

IN: For the compound shown here, C/C=C/c1ccc2c(c1)OCO2 , give the reported normalized growth.
OUT: 1.02

IN: For the compound shown here, CC(=O)O[C@H]1C[C@@H](OC(C)=O)C(C)(C)C2C[C@@H](OC(C)=O)[C@@]3(C)C4=CC(=O)O[C@@H](c5ccoc5)[C@]4(C)CCC3[C@]21C (stereo partly drawn) , give the reported normalized growth.
OUT: 1.02

IN: For the compound shown here, CC(=O)NCCCS(=O)(=O)O , give the reported normalized growth.
OUT: 1.02

IN: For the compound shown here, CO[C@H]1/C=C/O[C@@]2(C)Oc3c(C)c(O)c4c(O)c(c(/C=N/N5CCN(C)CC5)c(O)c4c3C2=O)NC(=O)/C(C)=C\C=C\C(C)[C@H](O)[C@@H](C)[C@@H](O)[C@@H](C)[C@@H](OC(C)=O)[C@@H]1C (stereo partly drawn) , give the reported normalized growth.
OUT: 1.03

IN: For the compound shown here, C=C(CC)C(=O)c1ccc(OCC(=O)O)c(Cl)c1Cl , give the reported normalized growth.
OUT: 1

IN: For the compound shown here, C=CC(C1=CC(=O)C(OC)=CC1=O)c1ccc(OC)cc1 (stereo not drawn) , give the reported normalized growth.
OUT: 0.84
